- TARGET ENTITY: 5-hydroxytryptamine receptor 2C (Homo sapiens, UniProt P28335)
Could you please mark Condition met for values of Ki below 500 nM and Condition not met for values at or above it?

Q: Is 500 nM strictly greater than the molecule's reported Ki? molecule: CN1CCN2c3c(cccc31)[C@@H]1CN(CCCC(=O)c3ccc(F)cc3)CC[C@H]12 (stereo in doubt)
Result: Condition not met

Q: Lab note: Ki threshold 500 nM. Does this molecule come in strictly under it? `O=C(CCCN1CC[C@@H]2[C@H](C1)c1cccc3c1N2CCC3)c1ccc(F)cc1`
Result: Condition met

Q: Hi there! Is Ki for `CN1CCN2c3c(cccc31)[C@@H]1CN(CCCC(=O)c3ccncc3)CC[C@@H]12` below 500 nM, do you know?
Result: Condition not met

Q: Quick check: Ki of `CN1CCN2c3c(cccc31)[C@H]1CN(CCCC(=O)c3ccc(F)cc3)CC[C@H]12` under 500 nM?
Result: Condition not met

Q: A record lists `CN1CCN2c3c(cccc31)[C@H]1CCN(CCCC(=O)c3ccc(F)cc3)CC[C@H]12` . Is its Ki below 500 nM?
Result: Condition not met

Q: Given the entry `CN1CCN2c3c(cccc31)[C@@H]1CN(CCCc3noc4ccccc34)CC[C@@H]12` , would its reported Ki be below 500 nM?
Result: Condition met

Q: Report whether reported Ki is lower than 500 nM (strictly) for `O=C(CCCN1CC[C@H]2[C@@H](C1)c1cccc3c1N2CCN3)c1ccc(F)cc1`
Result: Condition met

Q: Find out if reported Ki for `CN1CCN2c3c(cccc31)[C@@H]1CN(CCCCN3C(=O)[C@H]4CCCC[C@H]4C3=O)CC[C@@H]12` is less than 500 nM
Result: Condition not met

###

- METHOD SUMMARY: Selectivity ratio of Ki for rat recombinant dopamine D2 short receptor to Ki for human recombinant full length 5HT2A receptor
MEASURED QUANTITY: Ratio Ki
Lab note: jot down the number only; don't add units.

Q: # input compound: `CCN1CCN2c3c(cccc31)[C@@H]1CN(CCCC(=O)c3ccc(F)cc3)CC[C@@H]12` ; wanted: its Ratio Ki
Result: 31

Q: Name the reported Ratio Ki value associated with the compound `O=C(CCCN1CC[C@H]2c3cccc4c3N(CCO4)[C@H]2CC1)c1ccc(F)cc1`
Result: 5

Q: Entry `O=C(CCCN1CC[C@H]2[C@@H](C1)c1cccc3c1N2CCN3Cc1ccccc1)c1ccc(F)cc1` has what Ratio Ki?
Result: 18

###

- METHOD SUMMARY: Solubility of the compound in PBS buffer at pH 7.4
- Assay type: physicochemical
MEASURED QUANTITY: solubility
Param answer (str): number followed by unit.

Q: GET /values?readout=solubility&item= CN1CCN2c3c(cccc31)[C@@H]1CN(CCCC(=O)c3ccc(F)cc3)CC[C@@H]12.Cc1ccc(S(=O)(=O)O)cc1 [LUMATEPERONE TOSYLATE]
Result: 330 µg/mL

###

- METHOD SUMMARY: Selectivity ratio of Ki for rat recombinant dopamine D2 short receptor to Ki for human recombinant full length 5HT2A receptor
MEASURED QUANTITY: Ratio Ki
Reply with just the number.

Q: Tell me the measured Ratio Ki of `O=C(CCCN1CC[C@H]2[C@@H](C1)c1cccc3c1N2CC3)c1ccc(F)cc1` , please.
Result: 24

Q: Would you mind telling me what Ratio Ki value was observed for `CN1CCN2c3c(cccc31)[C@@H]1CN(CCCc3noc4ccccc34)CC[C@@H]12` ?
Result: 53

Q: Need Ratio Ki of `O=C(CCCN1CC[C@H]2[C@@H](C1)c1cccc3c1N2CCC3)c1ccc(F)cc1` , thanks.
Result: 27

Q: Returns the measured Ratio Ki for the input compound. Input: `CN1CCN2c3c(cccc31)[C@@H]1CN(CCCc3noc4cc(F)ccc34)CC[C@@H]12`
Result: 77

Q: Given the compound `O=C(CCCN1CC[C@H]2[C@@H](C1)c1cccc3c1N2CCO3)c1ccc(F)cc1` , what is its reported Ratio Ki?
Result: 46

Q: Consider the compound shown here: `O=C(CCCN1CC[C@H]2[C@@H](C1)c1cccc3c1N2CCN3)c1ccc(F)cc1` What is its recorded Ratio Ki?
Result: 32

Q: Param item = `COc1cc2c3c(c1)N(C)CCN3[C@H]1CCN(CCCC(=O)c3ccc(F)cc3)C[C@@H]21` ; retrieve measured Ratio Ki.
Result: 13

Q: Requested read-out: Ratio Ki. Entry: `CN1CCN2c3c(cccc31)[C@@H]1CCN(CCCC(=O)c3ccc(F)cc3)CC[C@@H]12`
Result: 87

Q: Give the measured Ratio Ki of `O=C(CCCN1CC[C@H]2[C@@H](C1)c1cccc3c1N2CCS3)c1ccc(F)cc1` .
Result: 38

###

- TARGET ENTITY: Alpha-1A adrenergic receptor (Homo sapiens, UniProt P35348)
- Sequence (P35348 whole entry): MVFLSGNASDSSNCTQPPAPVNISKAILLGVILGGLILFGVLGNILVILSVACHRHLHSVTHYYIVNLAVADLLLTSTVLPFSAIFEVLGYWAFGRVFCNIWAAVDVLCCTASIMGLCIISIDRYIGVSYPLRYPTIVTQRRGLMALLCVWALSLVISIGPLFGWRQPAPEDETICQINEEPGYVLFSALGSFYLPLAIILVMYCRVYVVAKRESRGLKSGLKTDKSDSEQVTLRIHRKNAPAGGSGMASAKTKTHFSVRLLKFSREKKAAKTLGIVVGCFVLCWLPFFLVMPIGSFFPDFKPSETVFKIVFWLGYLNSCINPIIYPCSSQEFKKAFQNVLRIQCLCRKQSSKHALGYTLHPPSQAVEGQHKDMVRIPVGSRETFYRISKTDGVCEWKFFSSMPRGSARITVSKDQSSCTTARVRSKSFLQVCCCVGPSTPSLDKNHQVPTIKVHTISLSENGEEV
Would you kindly list Ki for each of these compounds?
Answer in µM, number only, no unit symbol.

Q: Sample `CN1CCN2c3c(cccc31)[C@@H]1CN(CCCc3noc4ccccc34)CC[C@@H]12` — what was its Ki?
Result: 0.314

Q: Ki lookup needed for `O=C(CCCN1CC[C@H]2[C@@H](C1)c1cccc3c1N2CCO3)c1ccc(F)cc1` , thanks.
Result: 0.262

###

- TARGET ENTITY: 5-hydroxytryptamine receptor 2C (Homo sapiens)
- Sequence (P28335 whole entry): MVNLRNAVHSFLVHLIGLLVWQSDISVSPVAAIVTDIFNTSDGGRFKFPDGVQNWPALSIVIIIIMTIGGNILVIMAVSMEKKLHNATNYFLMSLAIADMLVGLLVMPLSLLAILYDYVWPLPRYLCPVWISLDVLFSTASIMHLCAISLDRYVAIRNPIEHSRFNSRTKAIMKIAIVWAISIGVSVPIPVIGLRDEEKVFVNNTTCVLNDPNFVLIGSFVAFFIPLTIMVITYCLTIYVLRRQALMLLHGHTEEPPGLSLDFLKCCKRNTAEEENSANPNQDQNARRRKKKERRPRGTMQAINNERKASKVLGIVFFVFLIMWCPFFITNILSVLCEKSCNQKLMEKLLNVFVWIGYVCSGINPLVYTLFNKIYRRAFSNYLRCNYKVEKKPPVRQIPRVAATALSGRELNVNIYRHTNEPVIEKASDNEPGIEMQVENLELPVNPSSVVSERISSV
MEASURED QUANTITY: pKi
The meaning of pKi here: minus log10 of the concentration in molar units.

Q: // map `O=C(CCCN1CC[C@H]2[C@@H](C1)c1cccc3c1N2CCN3Cc1ccccc1)c1ccc(F)cc1` to recorded pKi (system: 5-hydroxytryptamine receptor 2C (Homo sapiens))
Result: 6.41

Q: Requested read-out pKi, target or system 5-hydroxytryptamine receptor 2C (Homo sapiens), entry `O=C(CCCN1CC[C@H]2[C@@H](C1)c1cccc3c1N2CCCC3)c1ccc(F)cc1`
Result: 6.71

Q: # query: pKi | item `O=C(CCCN1CC[C@H]2c3cccc4c3N(CCO4)[C@H]2CC1)c1ccc(F)cc1` | system: 5-hydroxytryptamine receptor 2C (Homo sapiens)
Result: 6.19

###

Consider the following compounds; for each one, report its Ki.
- TARGET ENTITY: D(4) dopamine receptor (Homo sapiens, UniProt P21917)
- Sequence (P21917 whole entry): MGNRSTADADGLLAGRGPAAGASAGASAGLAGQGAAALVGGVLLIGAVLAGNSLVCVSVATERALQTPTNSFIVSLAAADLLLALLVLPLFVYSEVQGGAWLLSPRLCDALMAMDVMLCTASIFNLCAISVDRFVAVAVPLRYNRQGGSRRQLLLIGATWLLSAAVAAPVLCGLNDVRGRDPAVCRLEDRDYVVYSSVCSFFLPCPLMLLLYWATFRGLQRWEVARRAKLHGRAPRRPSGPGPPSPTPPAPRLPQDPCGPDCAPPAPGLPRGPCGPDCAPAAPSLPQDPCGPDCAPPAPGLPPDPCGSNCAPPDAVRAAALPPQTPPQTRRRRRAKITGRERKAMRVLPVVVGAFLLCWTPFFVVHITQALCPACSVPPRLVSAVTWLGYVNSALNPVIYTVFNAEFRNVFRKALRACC
All answers are understood in µM, so give the number only.

Q: Field request: Ki | item: `O=C(CCCN1CC[C@H]2[C@@H](C1)c1cccc3c1N2CCC3)c1ccc(F)cc1`
Result: 0.06

Q: I have this compound here, `O=C(CCCN1CC[C@H]2[C@@H](C1)c1cccc3c1N2CCO3)c1ccc(F)cc1` , and I need its recorded Ki.
Result: 0.32

Q: Please report the recorded Ki for CN1CCN2c3c(cccc31)[C@@H]1CN(CCCC(=O)c3ccc(F)cc3)CC[C@@H]12.Cc1ccc(S(=O)(=O)O)cc1 [LUMATEPERONE TOSYLATE] .
Result: 0.108
